tested on: Candida albicans; assay: Antifungal activity against Candida albicans MTCC 183 assessed as growth inhibition after 48 hr by agar streak dilution method; format: functional; conditions: MTCC 183, 48 h
MIC: recorded values
Please respond with the number in µg/mL and leave the unit unwritten.

Below are worked cases with known answers.
molecule="CCOc1ccc2nc(NC(=O)CNc3ccc(-c4nc(N5CC(C)CC(C)C5)nc(N5CC(C)CC(C)C5)n4)cc3)sc2c1 (centres undefined)" observed=12.5
molecule="Cc1ccc2nc(NC(=O)CNc3ccc(-c4nc(N5CC(C)CC(C)C5)nc(N5CC(C)CC(C)C5)n4)cc3)sc2c1 (centres undefined)" observed=50
molecule="CC1CC(C)CN(c2nc(-c3ccc(NCC(=O)Nc4nc5ccc(Cl)cc5s4)cc3)nc(N3CC(C)CC(C)C3)n2)C1 (centres undefined)" observed=50

Continue with the next molecule.
Provide only the value of recorded MIC for Cc1ccc(NC(=O)CNc2ccc(-c3nc(N4CC(C)CC(C)C4)nc(N4CC(C)CC(C)C4)n3)cc2)cc1 (centres undefined)
50

---

test system: Salmonella typhi; experiment: Antibacterial activity against Salmonella enterica subsp. enterica serovar Typhi MTCC 733 assessed as growth inhibition at 3.12 to 50 ug/mL after 24 hr by agar disk diffusion method; type: functional
Give rule met when the value for inhibition zone (IZ) is at least 20 mm. Give rule not met when it is less.

molecule="CC1CC(C)CN(c2nc(-c3ccc(NCC(=O)Nc4nc5ccc(Br)cc5s4)cc3)nc(N3CC(C)CC(C)C3)n2)C1 (stereo not drawn)" system_under_test="Salmonella typhi" group_label="rule met"

Quick check, inhibition zone (IZ) >= 20 mm? CC1CC(C)CN(c2nc(-c3ccc(NCC(=O)Nc4ccc(Cl)cc4)cc3)nc(N3CC(C)CC(C)C3)n2)C1 (stereo not drawn)
rule not met

Quick check, inhibition zone (IZ) >= 20 mm? CC1CC(C)CN(c2nc(-c3ccc(NCC(=O)Nc4ccc(F)cc4)cc3)nc(N3CC(C)CC(C)C3)n2)C1 (stereo not drawn)
rule met

---

system: Salmonella typhi; assay: Antibacterial activity against Salmonella enterica subsp. enterica serovar Typhi MTCC 733 assessed as growth inhibition at 3.12 to 50 ug/mL after 24 hr by agar disk diffusion method; assay type: functional
inhibition zone (IZ): recorded values
Please respond with the number in mm and leave the unit unwritten.

Below are worked cases with known answers.
compound="CC1CC(C)CN(c2nc(-c3ccc(NCC(=O)Nc4ccc([N+](=O)[O-])cc4)cc3)nc(N3CC(C)CC(C)C3)n2)C1 (centres undefined)" system_under_test="Salmonella typhi" observed=15
compound="CC1CC(C)CN(c2nc(-c3ccc(NCC(=O)Nc4nc5ccc(F)cc5s4)cc3)nc(N3CC(C)CC(C)C3)n2)C1 (centres undefined)" system_under_test="Salmonella typhi" observed=23

Continue with the next compound.
Provide only the value of recorded inhibition zone (IZ) for CCOc1ccc(NC(=O)CNc2ccc(-c3nc(N4CC(C)CC(C)C4)nc(N4CC(C)CC(C)C4)n3)cc2)cc1 (centres undefined)
21

---

test system: Klebsiella pneumoniae; assay: Antibacterial activity against Klebsiella pneumoniae MTCC 109 assessed as growth inhibition at 3.12 to 50 ug/mL after 24 hr by agar disk diffusion method; type: functional
Observable: inhibition zone (IZ) (mm)
Please respond with the number in mm and leave the unit unwritten.

Below are worked cases with known answers.
molecule="CCOc1ccc2nc(NC(=O)CNc3ccc(-c4nc(N5CC(C)CC(C)C5)nc(N5CC(C)CC(C)C5)n4)cc3)sc2c1 (stereo not drawn)" observable="inhibition zone (IZ)" observed=24
molecule="Cc1ccc2nc(NC(=O)CNc3ccc(-c4nc(N5CC(C)CC(C)C5)nc(N5CC(C)CC(C)C5)n4)cc3)sc2c1 (stereo not drawn)" observable="inhibition zone (IZ)" observed=16
molecule="CC1CC(C)CN(c2nc(-c3ccc(NCC(=O)Nc4ccc(I)cc4)cc3)nc(N3CC(C)CC(C)C3)n2)C1 (stereo not drawn)" observable="inhibition zone (IZ)" observed=23
molecule="CC1CC(C)CN(c2nc(-c3ccc(NCC(=O)Nc4nc5ccc(I)cc5s4)cc3)nc(N3CC(C)CC(C)C3)n2)C1 (stereo not drawn)" observable="inhibition zone (IZ)" observed=12

Provide only the value of recorded inhibition zone (IZ) for CC1CC(C)CN(c2nc(-c3ccc(NCC(=O)Nc4ccc(Br)cc4)cc3)nc(N3CC(C)CC(C)C3)n2)C1 (stereo not drawn)
24

Provide only the value of recorded inhibition zone (IZ) for CC1CC(C)CN(c2nc(-c3ccc(NCC(=O)Nc4nc5ccc(F)cc5s4)cc3)nc(N3CC(C)CC(C)C3)n2)C1 (stereo not drawn)
25

Provide only the value of recorded inhibition zone (IZ) for CC1CC(C)CN(c2nc(-c3ccc(NCC(=O)Nc4nc5ccc(C#N)cc5s4)cc3)nc(N3CC(C)CC(C)C3)n2)C1 (stereo not drawn)
27
